Target: Human CD33 (human, UniProt P20138 18-259)
Sequence (P20138 18-259 limits assumed): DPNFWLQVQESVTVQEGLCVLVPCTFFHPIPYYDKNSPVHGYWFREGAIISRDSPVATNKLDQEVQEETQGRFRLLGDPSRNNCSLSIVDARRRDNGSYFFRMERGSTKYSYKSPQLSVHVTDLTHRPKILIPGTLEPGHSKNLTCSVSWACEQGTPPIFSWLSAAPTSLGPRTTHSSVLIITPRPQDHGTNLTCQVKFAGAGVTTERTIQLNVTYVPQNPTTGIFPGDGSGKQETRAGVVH
Assay: BLI (Octet) as in Example 1, His-tagged VHH, human CD33
So basically, if koff comes in under 0.0005 s⁻¹ it's Yes, and if it's 0.0005 s⁻¹ or more it's No.

[ask] Does this binder meet the criterion koff < 0.0005 s⁻¹? 33-4 (VHH, not shown: C-terminal His-tag) VHH: QVQLVESGGGSVQPGGSLRLSCEASGSIFSIAHMGWYRQAPGKQRELVAVISSGGRTNYVDSVKGRFTISRDNAKNTVYLQMNSLKAEDTAVYFCNVAVVGGPRFDYWGQGTQVTVSS
[reply] No

[ask] For this binder, is koff lower than 0.0005 s⁻¹? 33-1 (VHH, not shown: C-terminal His-tag) VHH: QVQLVESGGGLVQTGGSLRLSCAASGGTFTNYAMGWFREAPGKEREFVAGINNNGDTLYNTNSVKGRFTISRDNAKNTVYLHMNSLKLEDTAVYYCAANLKGASWYSANYDYWGQGTQVTVSS
[reply] No

[ask] # check: koff < 0.0005 s⁻¹ for 33-14 (VHH, not shown: C-terminal His-tag) VHH: QVQLVESGGGLVQAGDSLKLSCAASGRTSLILAMAWWRQAPGKEREFAGRIWWNNDMTRYSDSVKGRFTISKDNTKNMVYLRMDNLGPEDTAVYYCEADLIGGSRGWGQGTQVTVSS
[reply] Yes

[ask] Please determine if 33-2 (VHH, not shown: C-terminal His-tag) VHH: QVQLVESGGGLVQAGGSLRLSCTASANILRTAPMAWYRQAPGKQREFVALITADGTTDYQESVKGRFTTSRDNAKNTVYLQMNSLQSEDTARYFCKVYSYWGQGTQVTVSS is below 0.0005 s⁻¹ in terms of koff.
[reply] No

[ask] Is koff of 33-8 (VHH, not shown: C-terminal His-tag) VHH: EVQLMESGGGLVQAGGSLRLSCAASGRTVSTYVMGWFRQAPGKEREFVAEINRIGDTLYNRTSVKGRFTISRDNAKNTVYLQMNSLEPEDTAVYSCAARVIGTSTYNYWGQGTQVTVSS strictly below 0.0005 s⁻¹?
[reply] No
